# reported pKd; entries follow
- SYSTEM_TESTED: T1, PUF4 RNA-binding domain (Saccharomyces cerevisiae, UniProt P25339 537-888)
- T1 sequence: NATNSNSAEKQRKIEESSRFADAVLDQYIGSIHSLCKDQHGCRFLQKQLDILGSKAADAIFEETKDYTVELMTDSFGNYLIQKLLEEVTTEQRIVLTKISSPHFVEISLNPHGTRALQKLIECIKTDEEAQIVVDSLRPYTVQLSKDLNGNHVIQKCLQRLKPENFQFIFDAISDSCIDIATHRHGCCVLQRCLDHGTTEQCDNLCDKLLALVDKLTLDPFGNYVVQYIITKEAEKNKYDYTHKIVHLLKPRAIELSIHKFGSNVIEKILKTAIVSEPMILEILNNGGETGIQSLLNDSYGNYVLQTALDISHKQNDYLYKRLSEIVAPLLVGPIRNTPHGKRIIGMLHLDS
- ASSAY_PROCEDURE: Mg; RNA-MaP; 20 mM Na-HEPES pH 7.4, 30 mM KOAc, 0.75 mM MgCl2, 0.1% Tween-20, 5% glycerol, 0.1 mg/mL BSA, 2 mM DTT; 25 C; 0.0125-409.6 nM protein
- CONDITION_DETAILS: tags: N-His6-TEV cleaved; C-SNAP kept, Cy3B-labelled; label: tethered on chip by stalled RNA polymerase
pKd: −log10 of the molar value.
MEASURE_NAME: pKd

BINDER	MEASURE_NAME	ENDPOINT_VALUE
Id_ii_S4_P5E.2_K5.1_C5.2_[C-2T]_[T-1A]_H5.1_A5.1_F5.1_T5.2_[T11G]_[A12T] (ssRNA) RNA: UUUGACAACUGAUCGUUCUUUCUUAUGUAUUAUUAGUUUCUUUCUCGAUCAGUUGUCUUU	pKd	8.32
Ic_S2_P4E.1_K4.1_C4.1_H4.1_A4.1_[T5G]_[A6T]_F4.1_[T8C]_[A9G]_T4.1 (ssRNA) RNA: UUUGAUUAAUAUGAUAUCGUUCUUUCUUGUAGUUCGUUCUUUCUCGAUAUCAUAUUAAUCUUU	pKd	6.26
Id_ii_S2_P3E.3_K3.2_C3.2_[C-2G]_H3.2_A3.1_F3.1_T3.2_[T9C]_[A10C] (ssRNA) RNA: UUUGAUUAAUAUGAUAUCGUUCUUUCUGUUAUAUAUACCUUCUUUCUCGAUAUCAUAUUAAUCUUU	pKd	7.51
